# Tested on: HL-60
# runDescription: NCI tumour cell line growth inhibition, 48 h
The source made the active and inactive calls. No stated cut-off is given here; in the data, active = GI50 up to about 1.1 µM and inactive = higher.
Attribute: GI50

O=C(/C=C/c1ccc(Cl)c(Cl)c1)c1cccc2ccccc12: 2.07 µM (inactive)

Query :: Entry under review: Cn1nc(-c2ccccc2)c(C(=O)/C=C/c2ccccc2)c(N2CCCC2)c1=O . Reported GI50?
Result :: 4.34 µM (inactive)

Query :: Entry under review: CC(C)(C)[C@H]1NC(=O)CN1C(=O)OCc1ccccc1 . Reported GI50?
Result :: > 100 µM (inactive)

Query :: Entry under review: CC1=C2c3ccccc3N(C(=O)/C=C/C(=O)O)[C@H]2[C@H]2C(=O)OC(=O)[C@H]2C1 . Reported GI50?
Result :: > 10 µM (inactive)

Query :: Entry under review: CC1(CO)OC(n2cnc3c(N)ncnc32)C(O)C1O (stereo not given) . Reported GI50?
Result :: > 100 µM (inactive)

Query :: Entry under review: COC(=O)C1=Cc2cc(OC)c(OC)cc2[C@H](c2ccc(OC)c(OC)c2)C1C(=O)OC (stereo not given in full) . Reported GI50?
Result :: > 100 µM (inactive)

Query :: Entry under review: O=C(O[C@@H](/C=C/c1ccccc1)P1(=O)N(Cc2ccccc2)[C@@H]2CCCC[C@H]2N1Cc1ccccc1)c1ccccc1 . Reported GI50?
Result :: 2.94 µM (inactive)

Query :: Entry under review: Cc1ccc(S(=O)(=O)N(CC(O)c2ccccc2)c2ccccc2F)cc1 (stereo not given) . Reported GI50?
Result :: 1.13 µM (inactive)

Query :: Entry under review: COc1cc(=O)oc(/C=C/C=O)c1C . Reported GI50?
Result :: 13.5 µM (inactive)

Query :: Entry under review: N/C(=N\O)N/N=C/c1cc2c(cc1Cl)OCO2 . Reported GI50?
Result :: 13.1 µM (inactive)
